System: TYRO3
Settings: concentration: 1 μM,replicates: in singlicate; n = 1;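 also: KINOMEscan kinase panel screen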
propertyLabel: %Inh (%)
Kindly provide the numeric value in % only, without the unit symbol.

CC(C)N1C(=O)Cc2cc(Nc3ncc(C(F)(F)F)c(NCc4cccc(S(C)(=O)=O)c4)n3)ccc21 | 0

Name the recorded %Inh of the compound listed here: C[C@H]1Oc2cc(cnc2N)-c2c(nn(C)c2C#N)CN(C)C(=O)c2ccc(F)cc21
5

Name the recorded %Inh of the compound listed here: CNC(=O)c1ccccc1Sc1ccc2c(/C=C/c3ccccn3)n[nH]c2c1
0

Name the recorded %Inh of the compound listed here: CCN(CC)CCOc1ccc(Nc2ncc3cc(-c4c(Cl)cccc4Cl)c(=O)n(C)c3n2)cc1 [SB-601273]
100

Name the recorded %Inh of the compound listed here: Cc1occc1-c1nc(N)c(OC[C@@H](N)Cc2c[nH]c3ccccc23)cc1-c1cc2c(C)n[nH]c2cn1 [GSK1660450]
0

Name the recorded %Inh of the compound listed here: CCN(CC)CCCCNc1ncc2cc(-c3c(Cl)cccc3Cl)c(NC(=O)NC(C)(C)C)nc2n1
8

Name the recorded %Inh of the compound listed here: O=C(NCCNc1ccnc(NCc2ccc(F)cc2)n1)c1cc2ccccc2s1 [GSK1379944]
4

Name the recorded %Inh of the compound listed here: Cl.Cl.NC[C@H](Cc1ccc(C(F)(F)F)cc1)NC(=O)c1cc(Br)c(-c2ccnc3[nH]ccc23)s1 [GSK1487252]
0

Name the recorded %Inh of the compound listed here: C[C@@H]1CCN(C(=O)CC#N)C[C@@H]1N(C)c1ncnc2[nH]ccc12
0

Name the recorded %Inh of the compound listed here: CC(C)Nc1cc(-c2ccc3c(N)n[nH]c3c2)nc(N)n1 [GSK2221681]
0

Name the recorded %Inh of the compound listed here: Nc1nc(Nc2ccccc2)cc(-c2ccc3c(N)n[nH]c3c2)n1 [GSK2225749]
0

Name the recorded %Inh of the compound listed here: NC(=O)c1cc(-c2ccccc2)cc2c(C3CCNCC3)c[nH]c12 [GSK301362]
1

Name the recorded %Inh of the compound listed here: Cl.Oc1cc(-c2nc(-c3ccccc3)[nH]c2-c2ccncc2)ccc1Cl [SB-386023]
58

Name the recorded %Inh of the compound listed here: CN(C)CC(O)COc1ccc(Nc2nccc(-c3cnn4nc(N5CCOCC5)ccc34)n2)cc1 (centres unmarked) [GW767488]
10

Name the recorded %Inh of the compound listed here: Cc1cc(C(=O)Nc2ccc(Oc3ccc4nc(NC(=O)C5CC5)cn4n3)cc2)nn1-c1ccccc1
37

Name the recorded %Inh of the compound listed here: Cl.Cl.Nc1nc(-c2ccc3c(N)n[nH]c3c2)cc(N2CCCC(NC(=O)c3ccccc3)C2)n1 (centres unmarked) [GSK2286775]
0

Name the recorded %Inh of the compound listed here: O=C(NCCCN1CCOC1=O)c1cnc(NCc2cc(Cl)ccc2Cl)nc1NC1CCCC1
46

====

Test system: CDK2
Details: concentration: 1 μM,replicates: in singlicate; n = 1
propertyLabel: %Inh (%)
Kindly provide the numeric value in % only, without the unit symbol.

Name the recorded %Inh of the compound listed here: NC(=O)c1cc(-c2ccccc2)cc2c(C3CCNCC3)c[nH]c12
0

Name the recorded %Inh of the compound listed here: Cc1occc1-c1nc(N)c(OC[C@@H](N)Cc2c[nH]c3ccccc23)cc1-c1cc2c(C)n[nH]c2cn1
0

Name the recorded %Inh of the compound listed here: Cc1ccc(-n2nc(C(C)(C)C)cc2NC(=O)Nc2ccc(OCCN3CCOCC3)c3ccccc23)cc1
0

Name the recorded %Inh of the compound listed here: Cl.Cl.Nc1nc(-c2ccc3c(N)n[nH]c3c2)cc(N2CCCC(NC(=O)c3ccccc3)C2)n1 (stereo not drawn)
0

Name the recorded %Inh of the compound listed here: Cc1ccc2c(-c3ccncc3)c(-c3ccc(F)cc3)nn2c1.Cl
0

Name the recorded %Inh of the compound listed here: O=C(NCCNc1ccnc(NCc2ccc(F)cc2)n1)c1cc2ccccc2s1
68

Name the recorded %Inh of the compound listed here: O=C(NCCCN1CCOC1=O)c1cnc(NCc2cc(Cl)ccc2Cl)nc1NC1CCCC1
0

Name the recorded %Inh of the compound listed here: COc1ccc(C[C@@H](CN)NC(=O)c2cc(Br)c(-c3ccnc4[nH]ccc34)s2)cc1.Cl.Cl
6

Name the recorded %Inh of the compound listed here: Cc1n[nH]c2ccc(-c3cc(OC[C@@H](N)Cc4ccccc4)cnc3-c3ccoc3)cc12.O=C(O)C(F)(F)F.O=C(O)C(F)(F)F
0

Name the recorded %Inh of the compound listed here: CCn1c(-c2nonc2N)nc2c(C#CC(C)(C)O)nc(OCCN)cc21.Cl.Cl
0

Name the recorded %Inh of the compound listed here: Cc1cc2cn[nH]c2cc1-c1cccc2c(N)c(C(N)=O)nnc12
24

Name the recorded %Inh of the compound listed here: Cl.Cl.NC[C@H](CC1CCCCC1)NC(=O)c1cc(Br)c(-c2ccnc3[nH]ccc23)s1
0

This collection of values is drawn from paper PMC5540273.
